- Target system: ALK [L1196M] (Homo sapiens, UniProt Q9UM73, L1196M)
- Sequence (Q9UM73 19-1620 L1196M): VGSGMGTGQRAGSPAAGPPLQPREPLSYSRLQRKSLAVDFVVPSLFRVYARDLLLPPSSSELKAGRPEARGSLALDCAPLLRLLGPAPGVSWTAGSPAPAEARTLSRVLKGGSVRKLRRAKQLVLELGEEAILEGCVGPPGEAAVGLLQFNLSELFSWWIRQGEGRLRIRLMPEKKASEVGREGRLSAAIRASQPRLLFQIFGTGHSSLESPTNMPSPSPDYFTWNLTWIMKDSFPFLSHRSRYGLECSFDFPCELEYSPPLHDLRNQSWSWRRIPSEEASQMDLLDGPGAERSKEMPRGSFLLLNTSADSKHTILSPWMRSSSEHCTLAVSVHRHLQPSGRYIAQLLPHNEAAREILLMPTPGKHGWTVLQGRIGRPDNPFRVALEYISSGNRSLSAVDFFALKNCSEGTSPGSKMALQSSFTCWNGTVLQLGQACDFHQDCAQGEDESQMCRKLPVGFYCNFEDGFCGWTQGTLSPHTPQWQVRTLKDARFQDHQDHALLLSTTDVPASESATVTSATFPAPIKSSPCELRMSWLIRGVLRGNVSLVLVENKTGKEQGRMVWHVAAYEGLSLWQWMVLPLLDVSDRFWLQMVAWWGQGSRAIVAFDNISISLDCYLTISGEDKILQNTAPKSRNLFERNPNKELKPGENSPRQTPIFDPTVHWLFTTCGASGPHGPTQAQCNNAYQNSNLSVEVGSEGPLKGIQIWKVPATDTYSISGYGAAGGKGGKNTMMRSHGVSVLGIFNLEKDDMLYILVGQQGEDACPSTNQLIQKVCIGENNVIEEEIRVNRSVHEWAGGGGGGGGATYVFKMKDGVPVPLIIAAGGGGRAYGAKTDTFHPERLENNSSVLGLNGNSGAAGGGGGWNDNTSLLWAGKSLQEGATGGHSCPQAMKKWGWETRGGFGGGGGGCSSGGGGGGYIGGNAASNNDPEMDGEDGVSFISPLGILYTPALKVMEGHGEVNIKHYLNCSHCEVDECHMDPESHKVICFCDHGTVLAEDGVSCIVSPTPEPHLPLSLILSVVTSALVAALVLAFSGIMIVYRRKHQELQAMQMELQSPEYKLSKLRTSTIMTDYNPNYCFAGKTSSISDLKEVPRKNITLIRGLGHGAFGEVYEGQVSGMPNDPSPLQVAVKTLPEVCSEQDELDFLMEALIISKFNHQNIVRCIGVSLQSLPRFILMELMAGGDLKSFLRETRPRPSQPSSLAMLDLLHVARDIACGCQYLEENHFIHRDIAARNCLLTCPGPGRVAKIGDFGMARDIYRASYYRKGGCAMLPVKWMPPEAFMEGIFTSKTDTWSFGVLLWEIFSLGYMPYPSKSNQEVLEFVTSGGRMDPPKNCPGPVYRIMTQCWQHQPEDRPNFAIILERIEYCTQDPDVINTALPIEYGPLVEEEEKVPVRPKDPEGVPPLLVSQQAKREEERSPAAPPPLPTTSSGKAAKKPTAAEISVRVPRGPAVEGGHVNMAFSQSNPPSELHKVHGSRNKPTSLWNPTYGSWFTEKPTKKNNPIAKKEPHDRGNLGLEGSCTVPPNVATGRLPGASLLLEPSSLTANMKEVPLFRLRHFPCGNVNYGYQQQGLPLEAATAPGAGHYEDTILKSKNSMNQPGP
- Assay summary: Kinase inhibition assay, ALK [L1196M]
- Format: biochemical
Reported property: IC50

Some molecules with known IC50 results, for comparison:
Input line: Recorded IC50 for CNCCc1cc(OC)c(Nc2ncc(Cl)c(Nc3ccccc3P(C)(C)=O)n2)cc1C [Example 21] , please?
Output line: 5 to 10 nM

Input line: Recorded IC50 for CNC(C)(C)c1ccc(Nc2ncc(Cl)c(Nc3ccccc3P(C)(C)=O)n2)c(OC)c1 [Example 15] , please?
Output line: ≤ 2 nM

Input line: Recorded IC50 for COc1cc(C(C)(C)CN(C)C)ccc1Nc1ncc(Cl)c(Nc2ccccc2P(C)(C)=O)n1 [Example 12] , please?
Output line: 5 to 10 nM

Further cases:
Input line: Recorded IC50 for COc1cc(CCN(C)C)c(C)cc1Nc1ncc(Cl)c(Nc2ccccc2P(C)(C)=O)n1 [Example 20] , please?
Output line: 2 to 5 nM

Input line: Recorded IC50 for COc1cc(CN(C)C)ccc1Nc1ncc(Cl)c(Nc2ccccc2P(C)(C)=O)n1 [Example 1] , please?
Output line: 5 to 10 nM

Input line: Recorded IC50 for COc1cc(C(C)(C)N(C)C)ccc1Nc1ncc(Cl)c(Nc2ccccc2P(C)(C)=O)n1 [Example 14] , please?
Output line: 2 to 5 nM

Input line: Recorded IC50 for COc1cc(CCN)ccc1Nc1ncc(Cl)c(Nc2ccccc2P(C)(C)=O)n1 [Example 2] , please?
Output line: 2 to 5 nM

Input line: Recorded IC50 for COc1cc(C(C)N(C)C)ccc1Nc1ncc(Cl)c(Nc2ccccc2P(C)(C)=O)n1 (centres unmarked) [Example 8] , please?
Output line: 2 to 5 nM

###

- Assay summary: Metabolic stability in rat liver microsomes
- Assay type: in vitro ADME
- Experimental conditions: SD, pH 7.4, 1 μM compound, 0.5 mg/mL protein, read-out: t1/2 (min), Rat liver microsome experiment
just bin them by half-life at 1 μM: low group: < 40 min; middle group: ≥ 40 min and < 100 min; high group: ≥ 100 min

Input line: Could you place COc1cc(CN(C)C)ccc1Nc1ncc(Cl)c(Nc2ccccc2P(C)(C)=O)n1 [Example 1] in its proper category? Many thanks.
Output line: low group

Input line: Could you place COc1cc(C(C)(C)N)ccc1Nc1ncc(Cl)c(Nc2ccccc2P(C)(C)=O)n1 [Example 13] in its proper category? Many thanks.
Output line: high group

Input line: Could you place COc1cc(C(C)CN(C)C)ccc1Nc1ncc(Cl)c(Nc2ccccc2P(C)(C)=O)n1 (stereo not shown) [Example 17] in its proper category? Many thanks.
Output line: middle group

Input line: Could you place COc1cc(CCN)ccc1Nc1ncc(Cl)c(Nc2ccccc2P(C)(C)=O)n1 [Example 2] in its proper category? Many thanks.
Output line: high group

Input line: Could you place COc1cc(CCN(C)C)c(C)cc1Nc1ncc(Cl)c(Nc2ccccc2P(C)(C)=O)n1 [Example 20] in its proper category? Many thanks.
Output line: middle group

Input line: Could you place COc1cc(C(C)N)ccc1Nc1ncc(Cl)c(Nc2ccccc2P(C)(C)=O)n1 (stereo not shown) [Example 7] in its proper category? Many thanks.
Output line: high group

Input line: Could you place COc1cc(CCN2CCOCC2)ccc1Nc1ncc(Cl)c(Nc2ccccc2P(C)(C)=O)n1 [Example 6] in its proper category? Many thanks.
Output line: low group

Input line: Could you place COc1cc(CCN(C)C)ccc1Nc1ncc(Cl)c(Nc2ccccc2P(C)(C)=O)n1 [Example 3] in its proper category? Many thanks.
Output line: low group

Further cases:
Input line: Could you place COc1cc(C(C)(C)CN(C)C)ccc1Nc1ncc(Cl)c(Nc2ccccc2P(C)(C)=O)n1 [Example 12] in its proper category? Many thanks.
Output line: low group

Input line: Could you place COc1cc(C(C)CN)ccc1Nc1ncc(Cl)c(Nc2ccccc2P(C)(C)=O)n1 (stereo not shown) [Example 16] in its proper category? Many thanks.
Output line: high group

Input line: Could you place CNC(C)c1ccc(Nc2ncc(Cl)c(Nc3ccccc3P(C)(C)=O)n2)c(OC)c1 (stereo not shown) [Example 9] in its proper category? Many thanks.
Output line: high group

Input line: Could you place COc1cc(CCN2CCN(C)CC2)ccc1Nc1ncc(Cl)c(Nc2ccccc2P(C)(C)=O)n1 [Example 5] in its proper category? Many thanks.
Output line: low group

Input line: Could you place COc1cc(C(C)N(C)C)ccc1Nc1ncc(Cl)c(Nc2ccccc2P(C)(C)=O)n1 (stereo not shown) [Example 8] in its proper category? Many thanks.
Output line: middle group
